Data origin, for the record: patent US5767124A

assay: Thermal stability of neat compound (solid state, HPLC); type: physicochemical; settings: solid state, 80 °C, 17 Wks, in the dark; read-out: % Inital
Experimental Endpoint: remaining at 2856 h
Kindly report the value followed by its unit.

I have this compound here, CC(C)(N)C(=O)N[C@H](COCc1ccccc1)C(=O)N1CCC2(CC1)CN(S(C)(=O)=O)c1ccccc12 [Form I] , and I need its recorded remaining at 2856 h.
99.4%

---

experiment: Thermal stability of neat compound (solid state, HPLC); type: physicochemical; conditions: solid state, 40 °C, 17 Wks, in the dark; read-out: % Inital
Experimental Endpoint: remaining at 2856 h
Kindly report the value followed by its unit.

I have this compound here, CC(C)(N)C(=O)N[C@H](COCc1ccccc1)C(=O)N1CCC2(CC1)CN(S(C)(=O)=O)c1ccccc12 [Form I] , and I need its recorded remaining at 2856 h.
98.7%
